Would you kindly list protein stability index for each of these variants?
B1: ISL2 (parent)
chain: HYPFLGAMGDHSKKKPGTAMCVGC

variants of: B1; experiment: protein stability index of a GFP-peptide fusion (GPS, HEK-293T) (PSI 1-6); higher = more stable; conditions: c terminus: a fixed tail appended;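 further: lentivirally expressed fusions sorted by FACS into six bins by GFP to DsRed ratio, PSI derived from sequencing read proportions per bin multiplied by bin number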
Note: the reply should be a number with no unit written.

Task item: Request the reported protein stability index associated with HYPFLGAMGDHSKKKPGTAQCVGC [M20Q]
Reply: 3.09

Task item: Request the reported protein stability index associated with HYPFLGGMGDHSKKKPGTAMCVGC [A7G]
Reply: 2.99

Task item: Request the reported protein stability index associated with HYPFLGAMGDHSKKKPGTAMCVCC [G23C]
Reply: 3.18

Task item: Request the reported protein stability index associated with HYPFLGAMGDHSKKKPGTAPCVGC [M20P]
Reply: 3.03

Task item: Request the reported protein stability index associated with HYPFLGAMDDHSKKKPGTAMCVGC [G9D]
Reply: 2.85

Task item: Request the reported protein stability index associated with HYPFLGAMYDHSKKKPGTAMCVGC [G9Y]
Reply: 2.31

Task item: Request the reported protein stability index associated with HYPFLGAPGDHSKKKPGTAMCVGC [M8P]
Reply: 3.07

Task item: Request the reported protein stability index associated with HYPFLGAMGDHSKDKPGTAMCVGC [K14D]
Reply: 3

Task item: Request the reported protein stability index associated with HYPFLGAMGDHSKKKPGTANCVGC [M20N]
Reply: 3.16

Task item: Request the reported protein stability index associated with HYPFFGAMGDHSKKKPGTAMCVGC [L5F]
Reply: 3.19

Task item: Request the reported protein stability index associated with HYPFLGAMGDHSKKKPGTAMCFGC [V22F]
Reply: 2.16

Task item: Request the reported protein stability index associated with HYPFLGAMGDHSKKKPGTAMCVGL [C24L]
Reply: 2.48

Task item: Request the reported protein stability index associated with HYPFLGAMGDHSKKKPETAMCVGC [G17E]
Reply: 3.44

Task item: Request the reported protein stability index associated with HYPFLGAMGDHSKKTPGTAMCVGC [K15T]
Reply: 2.75

Task item: Request the reported protein stability index associated with HYPFLGAMGDHSKKKPGTAMCVEC [G23E]
Reply: 3.25

Task item: Request the reported protein stability index associated with HYPFLGAMGDHLKKKPGTAMCVGC [S12L]
Reply: 1.99

Task item: Request the reported protein stability index associated with HYPFLGAMGDHSKKKPGTAMCVGM [C24M]
Reply: 2.52

Task item: Request the reported protein stability index associated with HYPFLGQMGDHSKKKPGTAMCVGC [A7Q]
Reply: 3.22

Task item: Request the reported protein stability index associated with HYPFLGAMGDHSRKKPGTAMCVGC [K13R]
Reply: 1.8

Task item: Request the reported protein stability index associated with HYPFGGAMGDHSKKKPGTAMCVGC [L5G]
Reply: 3.5

Task item: Request the reported protein stability index associated with HYPFLGAMGAHSKKKPGTAMCVGC [D10A]
Reply: 2.39

Task item: Request the reported protein stability index associated with HYPFLGAMGDHSKKKPGTAMCYGC [V22Y]
Reply: 2.34
